Measured Dose.FC.LYZ.NS accompanies every entry in the list below.
tested on: ISC-enriched organoids; assay: Primary screen, 384-well 2.5-D organoid differentiation (ENR+CD, 6 days): basal lysozyme secretion (LYZ.NS); type: cell-based, murine; conditions: Dose 10.00 uM; primary screen, FC vs plate median
Provide only the numeric value, understood in log 2 fold change.

Here's what some known entries look like.
• Cc1cccc(CC(=O)N2CCc3c2ccc(-c2cn(C)c4ncnc(N)c24)c3F)n1 = −0.012
• Cc1cc(Nc2cc(CN3CCOCC3)c3nc(C)c(Cc4ccc(Cl)cc4F)n3n2)n[nH]1 = −0.280
• O=C(NNc1ccccc1)c1ccncc1 = −0.284
• C[C@](O)(COc1ccc(C#N)cc1)C(=O)Nc1ccc(C#N)c(C(F)(F)F)c1 = −0.059
• C[C@]1(O)C[C@@H](c2nc(-c3ccc4ccc(-c5ccccc5)nc4c3)c3c(N)nccn32)C1 = −0.229

Q. Which Dose.FC.LYZ.NS is reported for this compound? CCCC(=O)Nc1cccc(NC(=O)c2ccccc2Br)c1
A. −0.057

Q. Entry CN(c1ncccc1CNc1nc(Nc2ccc3c(c2)CC(=O)N3)ncc1C(F)(F)F)S(C)(=O)=O : reported Dose.FC.LYZ.NS = ?
A. −0.251

Q. Look at this compound and give its reported Dose.FC.LYZ.NS. C#Cc1cccc(Nc2ncnc3cc(OCCOC)c(OCCO)cc23)c1
A. −0.325

The measurements presented in this section are drawn from patent US20230398130A1.
